test system: CAKI-1 renal; experiment: NCI-60 one-dose screen, 48 h (100 = growth as untreated, 0 = no growth, -100 = all killed); conditions: 10 µM
Compounds without any hit were thinned out: in the full panel of roughly 83,000, 20% have a hit.
outcome-measure: growth (%)
Note: unit % is implicit; provide only the numeric part.

In: Give CAKI-1 renal growth for CN(C)CCn1c2ccc(N)cc2c2nc3ccccc3nc21
Out: 28.6

Further cases:
In: Give CAKI-1 renal growth for Oc1ccc(CSc2nnc(-c3ccc(Br)cc3)n2-c2ccccc2)c2cccnc12
Out: 36.7

In: Give CAKI-1 renal growth for O=C(NNc1nc2cc(F)ccc2n2cncc12)c1cnccn1
Out: 7.86

In: Give CAKI-1 renal growth for Clc1ccc(-c2csc(Nc3cccc(Nc4csc(-c5ccc(Cl)cc5)n4)c3)n2)cc1
Out: 51.9

In: Give CAKI-1 renal growth for CCOC(=O)Nc1cccc(-n2cnc3cc(-c4ccc(O)cc4)ccc32)c1
Out: 33

In: Give CAKI-1 renal growth for CC(c1ccccc1)N1C(=O)/C(=C/c2csc(C#N)n2)SC1=S (centres undefined)
Out: 84.9

In: Give CAKI-1 renal growth for Cc1cc2nc(C(Cl)Cl)nc(-c3ccco3)n2n1
Out: 51.2

In: Give CAKI-1 renal growth for Cc1csc(Nc2cccc(Nc3nc(C)cs3)c2)n1
Out: 78.1

In: Give CAKI-1 renal growth for CCOC(=O)c1c(NC(=O)c2ccc(C(C)(C)C)cc2)sc2cc(OCCN3CCCCC3)ccc12
Out: 84.2

In: Give CAKI-1 renal growth for O=c1[nH]c2cc(Cl)ccc2n1C1CCN(c2ccc3nnc(Cl)n3n2)CC1
Out: 78.6

In: Give CAKI-1 renal growth for O=C(O)c1ccc(-n2cc(CNc3ccc(F)cc3)c(-c3ccc(C(F)(F)F)cc3)n2)cc1
Out: 76.2

In: Give CAKI-1 renal growth for COc1ccc2c(c1)c(-c1nnc(N)nc1-c1cn(C)c3ccccc13)cn2C
Out: 75.7

In: Give CAKI-1 renal growth for Clc1ccc(-c2nc3ccc(/C(=N\N=C\c4ccccc4)c4ccccc4)cc3[nH]2)cc1
Out: 77.2

In: Give CAKI-1 renal growth for COc1ccc([C@H]2c3[nH]c4ccccc4c3C[C@@H]3C(=O)N(C4CCN(Cc5ccccc5)CC4)CC(=O)N23)c(OC)c1
Out: 56.4

In: Give CAKI-1 renal growth for C#CCOc1ccccc1C(Nc1ccccc1)c1nnnn1C1CCCCC1 (centres undefined)
Out: 59.6

In: Give CAKI-1 renal growth for CC1CCc2c(sc3nc(SCC(=O)N/N=C/c4ccc(Cl)cc4)n(-c4ccccc4)c(=O)c23)C1 (centres undefined)
Out: 75.1

In: Give CAKI-1 renal growth for CCc1ccc(NC(=O)N[C@@H](Cc2cccc(C)c2)C(=O)N[C@@H]2C(=O)N3CCC[C@H]3C(=O)N3CCCC[C@H]3C(=O)N[C@@H](CO)C(=O)N3C[C@H](C)C[C@H]3C(=O)O[C@H]2C)c(F)c1
Out: 15.5

In: Give CAKI-1 renal growth for COc1ccc(-c2nc3cc(Cl)c(Cl)cc3n2CC(=O)N=Nc2c(O)[nH]c3ccccc23)cc1
Out: 56.5

In: Give CAKI-1 renal growth for CC(C)SC1=NC(=C(C(=N1)NC2=ClC=CC=C2)C#N)C3=CC=CC=C3
Out: 64.5

====

test system: SNB-75 CNS; test: NCI-60 one-dose screen, 48 h; conditions: 10 µM unless noted
About 83,000 compounds went through this panel and 20% of them were active in at least one assay; those are over-represented in the sample as a whole. Calls of active or inactive are those of the source. The calls were made as follows: active = growth percent below 10; inactive = the rest.
Mark one answer only. Choices: yes (1) (active), no (0) (inactive)

In: Short answer needed: outcome of this test for COc1ccc(CCN2C(=O)/C(=C/c3nc(CO)cs3)SC2=S)cc1 ?
Out: no (0)

Then this compound:
In: Short answer needed: outcome of this test for CC(=O)NC(C)(C)C(=O)N[C@@H](C)C(=O)NC(C)(C)C(=O)N[C@@H](C)C(=O)NC(C)(C)C(=O)N[C@@H](C)C(=O)N[C@@H](CCC(N)=O)C(=O)NC(C)(C)C(=O)N[C@H](C(=O)NC(C)(C)C(=O)NCC(=O)N[C@@H](CC(C)C)C(=O)NC(C)(C)C(=O)N1CCC[C@H]1C(=O)N[C@H](C(=O)NC(C)(C)C(=O)NC(C)(C)C(=O)N[C@@H](CCC(N)=O)C(=O)N[C@@H](CCC(N)=O)C(=O)N[C@H](CO)CC1CCCCC1)C(C)C)C(C)C ?
Out: no (0)

====

growth for assorted compounds
tested on: A549/ATCC NSCLC; assay: NCI-60 one-dose screen, 48 h (100 = growth as untreated, 0 = no growth, -100 = all killed); details: 10 µM unless noted
About 83,000 compounds went through this panel and 20% of them were active in at least one assay; those are over-represented in the sample as a whole.
Note: unit % is implicit; provide only the numeric part.

In: Give A549/ATCC NSCLC growth for Cc1ccc(Nc2ncnc3c2c(C)nn3-c2ccc([N+](=O)[O-])cc2)cc1
Out: 45.1

In: Give A549/ATCC NSCLC growth for Nc1n[nH]c2cccc(C#Cc3cccc(NC(=O)c4cccc(OC(F)(F)F)c4)c3)c12
Out: 71.4

Further cases:
In: Give A549/ATCC NSCLC growth for C#CCOc1ccc(C(Nc2cc(Cl)ccc2Cl)c2nnnn2C2CCCCC2)cc1 (centres undefined)
Out: 80.5

In: Give A549/ATCC NSCLC growth for COc1cc([C@H]2OC[C@H]3[C@@H]2CO[C@@H]3c2ccc(O)c(OC)c2)ccc1O
Out: 95.1

In: Give A549/ATCC NSCLC growth for COc1cc(C2=NN(C(C)=O)C(c3ccc(N4CCOCC4)cc3)C2)cc(OC)c1OC (centres undefined)
Out: 104

In: Give A549/ATCC NSCLC growth for Oc1ccc(CSc2nnc(-c3ccc(Br)cc3)n2-c2ccccc2)c2cccnc12
Out: 26.3

====

tested on: SW-620 colon; assay: NCI-60 one-dose screen, 48 h (100 = growth as untreated, 0 = no growth, -100 = all killed); settings: 10 µM unless noted
About 83,000 compounds went through this panel and 20% of them were active in at least one assay; those are over-represented in the sample as a whole.
growth for assorted compounds
Note: unit % is implicit; provide only the numeric part.

In the examples that follow, each entry is paired with its recorded growth.
In: # growth lookup, item NC(N)=NS(=O)(=O)c1ccc(N=NC2C(=O)NN(c3ccccc3)C2=O)cc1 (configuration not stated)
Out: 100

In: # growth lookup, item O=C1[C@H]2Cc3c([nH]c4ccccc34)[C@@H](c3c(Cl)cccc3Cl)N2C(=O)CN1C1CCN(Cc2ccccc2)CC1
Out: 44.5

In: # growth lookup, item CS(=O)(=O)c1ccc(-c2nn(-c3ccccc3)cc2/C=C/C(=O)c2ccc(Br)cc2)cc1
Out: 86.9

In: # growth lookup, item COc1ccc(/C=C/C(=O)c2nnn(-c3ccc(C(=O)O)cc3)c2C)cc1OC
Out: 110

In: # growth lookup, item CC1(C)CC[C@]2(C(=O)N3CCCN(CC#N)CC3)CC[C@]3(C)C(=CC[C@@H]4[C@@]5(C)CC[C@H](O)C(C)(C)[C@@H]5CC[C@]43C)[C@H]2C1
Out: 27.8

Further cases:
In: # growth lookup, item CCCCCCCCCC[C@@H](C)[C@@H]1CC(=O)N[C@H]([C@@H](C)O)C(=O)N[C@@H](C)C(=O)N[C@H](C)C(=O)N[C@@H](CCC(N)=O)C(=O)N[C@H](Cc2ccc(O)cc2)C(=O)N[C@@H](C(C)CC)C(=O)O1 (some centres not stated)
Out: 81.9

In: # growth lookup, item Cc1nn(-c2ccccc2)c2nc(CCl)[nH]c(=O)c12
Out: 85.1

====

system: 786-0 renal; assay: NCI-60 one-dose screen, 48 h (100 = growth as untreated, 0 = no growth, -100 = all killed); settings: 10 µM unless noted
Compounds without any hit were thinned out: in the full panel of roughly 83,000, 20% have a hit.
Checkbox rule: growth lower than 70% = class 1; growth not lower than 70% = class 0.

Worked examples, 3 compounds total:
In: Given the entry O=C(c1ccc(O)cc1)[C@@H]1[C@@H]2CCCN2[C@@]2(C(=O)N(C(=O)c3ccc(F)cc3)c3ccccc32)[C@H]1c1ccc(F)cc1 , would its reported growth be below 70%?
Out: class 0

In: Given the entry CC1COc2c(N3CCN(C)CC3)c(F)cc3c(=O)c(C(=O)N/N=C/c4cc[nH]c4)cn1c23 (centres undefined) , would its reported growth be below 70%?
Out: class 1

In: Given the entry NNC(=O)c1sc2nc(-c3cnccn3)cc(-c3cccs3)c2c1N , would its reported growth be below 70%?
Out: class 0

Further cases:
In: Given the entry C=C(C)[C@@H]1CC[C@]2(COS(C)(=O)=O)CC[C@]3(C)[C@H](CC[C@@H]4[C@@]5(C)CCCNC(C)(C)[C@@H]5CC[C@]43C)[C@@H]12 , would its reported growth be below 70%?
Out: class 0

In: Given the entry O=C(Nc1cccc(Cl)c1)Nc1nc2ccc([N+](=O)[O-])cc2s1 , would its reported growth be below 70%?
Out: class 1

In: Given the entry CCOC(=O)c1c(NC(=O)c2ccc(F)cc2F)sc2c1CCC(=O)C2 , would its reported growth be below 70%?
Out: class 0

In: Given the entry CN1CCN(c2nc(-c3csc(-c4ccncc4)n3)cc3ccccc23)CC1 , would its reported growth be below 70%?
Out: class 1

In: Given the entry Oc1ccc(CSc2nnc(-c3ccncc3)o2)c2cccnc12 , would its reported growth be below 70%?
Out: class 1

In: Given the entry CCOC(=O)CC(=O)CSC1=NC2C(NN1)N(C)C(=O)N2C (centres undefined) , would its reported growth be below 70%?
Out: class 0
